# tested_system: T1, human TL1A extracellular domain with N-terminal HIS and FLAG tag (human, UniProt O95150 72-251)
# T1 construct: the whole entry is named; also called TNFSF15
# T1 sequence: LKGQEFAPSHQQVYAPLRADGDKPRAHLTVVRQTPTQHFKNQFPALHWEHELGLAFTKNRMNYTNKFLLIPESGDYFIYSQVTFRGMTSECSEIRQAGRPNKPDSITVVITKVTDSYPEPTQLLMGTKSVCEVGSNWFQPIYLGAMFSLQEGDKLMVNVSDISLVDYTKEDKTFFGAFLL
# assay_remarks: SPR Run 7, antibody on Protein A, TL1A 5 ug/mL, timepoint 44
# key: entry, value: TL1A Binding Level (Early)
Give the value, in units of RU, as a plain number.

These solved cases illustrate the format of a correct answer.
binder: 320-552 (antibody, human IgG1, name in Kabat numbering, V domains shown, full-length human IgG1, lambda) VH: QVQLVQSGAEVKKPGASVKVSCKASGYTFTSYDINWVRQAPGQGLEWMGWLNPNSGNHGYAQKFQGRVTMTADRSTSTAYMELSSLRSEDTAVYYCAREVPETAAFEYWGQGTLVTVSS VL: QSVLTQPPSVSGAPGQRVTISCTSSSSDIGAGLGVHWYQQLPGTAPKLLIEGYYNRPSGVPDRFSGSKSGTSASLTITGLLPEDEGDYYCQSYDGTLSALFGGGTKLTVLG
measure_name: TL1A Binding Level (Early)
unit_of_measurement: RU
data_value: 104

binder: 320-518 (antibody, human IgG1, name in Kabat numbering, V domains shown, full-length human IgG1, lambda) VH: QVQLVQSGAEVKKPGASVKVSCKASGYTFTSYDINWVRQAPGQGLEWMGWLNPHSGNTGYAQKFQGRVTMTADRSTSTAYMELSSLRSEDTAVYYCAREVPETAAFEYWGQGTLVTVSS VL: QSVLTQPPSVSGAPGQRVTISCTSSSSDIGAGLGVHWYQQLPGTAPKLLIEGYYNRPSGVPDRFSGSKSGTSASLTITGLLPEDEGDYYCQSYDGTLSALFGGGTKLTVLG
measure_name: TL1A Binding Level (Early)
unit_of_measurement: RU
data_value: 169

binder: 320-544 (antibody, human IgG1, name in Kabat numbering, V domains shown, full-length human IgG1, lambda) VH: QVQLVQSGAEVKKPGASVKVSCKASGYTFTSYDINWVRQAPGQGLEWMGWLNPNSGKTGYAQKFQGRVTMTADRSTSTAYMELSSLRSEDTAVYYCAREVPETAAFEYWGQGTLVTVSS VL: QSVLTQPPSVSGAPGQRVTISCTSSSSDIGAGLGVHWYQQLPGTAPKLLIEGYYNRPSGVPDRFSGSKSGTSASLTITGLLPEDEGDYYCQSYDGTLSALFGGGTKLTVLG
measure_name: TL1A Binding Level (Early)
unit_of_measurement: RU
data_value: 120

Incoming: Can you look up the measured TL1A Binding Level (Early) of 320-555 (antibody, human IgG1, name in Kabat numbering, V domains shown, full-length human IgG1, lambda) VH: QVQLVQSGAEVKKPGASVKVSCKASGYTFTSYDINWVRQAPGQGLEWMGWLNPNSGNWGYAQKFQGRVTMTADRSTSTAYMELSSLRSEDTAVYYCAREVPETAAFEYWGQGTLVTVSS VL: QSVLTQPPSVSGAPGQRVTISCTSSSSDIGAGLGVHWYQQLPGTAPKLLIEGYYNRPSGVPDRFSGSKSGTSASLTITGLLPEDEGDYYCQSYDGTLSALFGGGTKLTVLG for me?
Outgoing: 62

Incoming: One more binder: 320-515 (antibody, human IgG1, name in Kabat numbering, V domains shown, full-length human IgG1, lambda) VH: QVQLVQSGAEVKKPGASVKVSCKASGYTFTSYDINWVRQAPGQGLEWMGWLNPSSGNTGYAQKFQGRVTMTADRSTSTAYMELSSLRSEDTAVYYCAREVPETAAFEYWGQGTLVTVSS VL: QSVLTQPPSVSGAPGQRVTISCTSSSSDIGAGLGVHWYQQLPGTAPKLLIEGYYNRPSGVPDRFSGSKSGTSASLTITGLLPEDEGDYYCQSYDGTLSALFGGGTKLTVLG
Outgoing: 73
